# Tested on: bermudagrass (Cynodon dactylon)
# Test protocol: Test B pre-/postemergence plant response
# Type: in vivo
# Experimental setup: Postemergence, 62 g ai/ha; scale 0 (no effect) to 100 (complete control); 13 to 15 days
Record form. Attribute: Plant response rating, Bermudagrass. Fill in for each entry.
Kindly provide the number alone.

Request: Quick check: Plant response rating, Bermudagrass on bermudagrass (Cynodon dactylon), item Cc1cccc(-n2c(-c3ccccc3)ncc(C(=O)C3=C(O)CCCC3=O)c2=O)c1C ?
Result: 90

Request: Quick check: Plant response rating, Bermudagrass on bermudagrass (Cynodon dactylon), item Cc1cc(F)ccc1-n1c(-c2ccccc2)ncc(C(=O)C2=C(O)CCCC2=O)c1=O ?
Result: 95

Request: Quick check: Plant response rating, Bermudagrass on bermudagrass (Cynodon dactylon), item Cc1ccc(F)c(-n2c(-c3ccccc3)ncc(C(=O)C3=C(O)CCCC3=O)c2=O)c1 ?
Result: 90

Request: Quick check: Plant response rating, Bermudagrass on bermudagrass (Cynodon dactylon), item O=C1CCCC(O)=C1C(=O)c1cnc(-c2cccc(Cl)c2)n(-c2ccccc2)c1=O ?
Result: 95

Request: Quick check: Plant response rating, Bermudagrass on bermudagrass (Cynodon dactylon), item Cc1ccc(C)c(-n2c(-c3ccccc3)ncc(C(=O)C3=C(O)CCCC3=O)c2=O)c1 ?
Result: 90

Request: Quick check: Plant response rating, Bermudagrass on bermudagrass (Cynodon dactylon), item CCCCc1ncc(C(=O)C2=C(O)CCCC2=O)c(=O)n1-c1ccccc1C ?
Result: 80

Request: Quick check: Plant response rating, Bermudagrass on bermudagrass (Cynodon dactylon), item Cc1ccc(-n2c(-c3cccc(Cl)c3)ncc(C(=O)C3=C(O)CCCC3=O)c2=O)cc1 ?
Result: 60

====

# Test system: downy bromegrass (Bromus tectorum)
# Test protocol: Test B pre-/postemergence plant response
# Assay type: in vivo
# Experimental setup: Postemergence, 31 g ai/ha; 0 to 100 scale (0 no effect, 100 complete control)
Record form. Attribute: Plant response rating, Bromegrass, Downy. Fill in for each entry.

Request: Dear colleague, I am looking for the recorded Plant response rating, Bromegrass, Downy of the following molecule: O=C1CCCC(O)=C1C(=O)c1cnc(-c2ccccc2)n(C2CCOCC2)c1=O [Compound 129]
Result: 5

Request: Dear colleague, I am looking for the recorded Plant response rating, Bromegrass, Downy of the following molecule: CCCc1ncc(C(=O)C2=C(O)CCCC2=O)c(=O)n1-c1ccccc1 [Compound 217]
Result: 10

Request: Dear colleague, I am looking for the recorded Plant response rating, Bromegrass, Downy of the following molecule: COCCCn1c(-c2cccc(F)c2)ncc(C(=O)C2=C(O)CCCC2=O)c1=O [Compound 126]
Result: 5

Request: Dear colleague, I am looking for the recorded Plant response rating, Bromegrass, Downy of the following molecule: CCn1c(-c2cc(F)cc(F)c2)ncc(C(=O)C2=C(O)CCCC2=O)c1=O [Compound 122]
Result: 5

====

# Tested on: pigweed (Amaranthus retroflexus)
# Test protocol: Test A pre-/postemergence plant response
# Type: in vivo
# Experimental setup: Postemergence, 125 g ai/ha; 0 to 100 scale where 0 is no effect and 100 is complete control
Result type: Plant response rating, Pigweed
Kindly provide the number alone.

Request: Dear colleague, I am looking for the recorded Plant response rating, Pigweed of the following molecule: CCCn1c(-c2ccn(C)n2)ncc(C(=O)C2=C(O)CCCC2=O)c1=O
Result: 80

Request: Dear colleague, I am looking for the recorded Plant response rating, Pigweed of the following molecule: O=C1CCCC(O)=C1C(=O)c1cnc(-c2ccccc2)n(C2CCOCC2)c1=O
Result: 100

Request: Dear colleague, I am looking for the recorded Plant response rating, Pigweed of the following molecule: O=C1CCCC(O)=C1C(=O)c1cnc(-c2ccco2)n(C2CCCCC2)c1=O
Result: 90

Request: Dear colleague, I am looking for the recorded Plant response rating, Pigweed of the following molecule: CCn1c(-c2cc(F)cc(F)c2)ncc(C(=O)C2=C(O)CCCC2=O)c1=O
Result: 100

Request: Dear colleague, I am looking for the recorded Plant response rating, Pigweed of the following molecule: CCCCn1c(-c2cccc(C)c2)ncc(C(=O)C2=C(O)C3CCC(C3)C2=O)c1=O (centres unmarked)
Result: 70

Request: Dear colleague, I am looking for the recorded Plant response rating, Pigweed of the following molecule: Cc1c(F)cccc1-n1c(-c2ccccc2)ncc(C(=O)C2=C(O)C3CCC(C3)C2=O)c1=O (centres unmarked)
Result: 70

Request: Dear colleague, I am looking for the recorded Plant response rating, Pigweed of the following molecule: CCCn1c(-c2ccc3ccccc3c2)ncc(C(=O)C2=C(O)C3CCC(C3)C2=O)c1=O (centres unmarked)
Result: 20

Request: Dear colleague, I am looking for the recorded Plant response rating, Pigweed of the following molecule: CCCn1c(-c2ccc(OC)cc2)ncc(C(=O)C2=C(O)CCCC2=O)c1=O
Result: 90

Request: Dear colleague, I am looking for the recorded Plant response rating, Pigweed of the following molecule: CCc1ccc(-n2c(-c3cccc(Br)c3)ncc(C(=O)C3=C(O)CCCC3=O)c2=O)cc1
Result: 100

Request: Dear colleague, I am looking for the recorded Plant response rating, Pigweed of the following molecule: CCCn1c(-c2ccsc2)ncc(C(=O)C2=C(O)CCCC2=O)c1=O
Result: 100

Request: Dear colleague, I am looking for the recorded Plant response rating, Pigweed of the following molecule: COc1cccc(-c2ncc(C(=O)C3=C(O)CCCC3=O)c(=O)n2C2CCCCC2)c1
Result: 80

Request: Dear colleague, I am looking for the recorded Plant response rating, Pigweed of the following molecule: CCCn1c(-c2ccc3c(c2)OCCO3)ncc(C(=O)C2=C(O)C3CCC(C3)C2=O)c1=O (centres unmarked)
Result: 70

Request: Dear colleague, I am looking for the recorded Plant response rating, Pigweed of the following molecule: CCCCCCn1c(-c2ccccc2)ncc(C(=O)C2=C(O)CCCC2=O)c1=O
Result: 100

Request: Dear colleague, I am looking for the recorded Plant response rating, Pigweed of the following molecule: O=C1CCCC(O)=C1C(=O)c1cnc(-c2cc(F)cc(F)c2)n(CC2CCCO2)c1=O (centres unmarked)
Result: 100

Request: Dear colleague, I am looking for the recorded Plant response rating, Pigweed of the following molecule: O=C1CCCC(O)=C1C(=O)c1cnc(-c2cccs2)n(CC2CCCO2)c1=O (centres unmarked)
Result: 100

Request: Dear colleague, I am looking for the recorded Plant response rating, Pigweed of the following molecule: CCOCCn1c(-c2cc(F)cc(F)c2)ncc(C(=O)C2=C(O)CCCC2=O)c1=O
Result: 80

Request: Dear colleague, I am looking for the recorded Plant response rating, Pigweed of the following molecule: CCCn1c(-c2cc(F)cc(F)c2)ncc(C(=O)C2=C(O)CC(C)(C)CC2=O)c1=O
Result: 100
